- TESTED_TARGET: Acyl-homoserine lactone acylase PvdQ (Pseudomonas aeruginosa (strain LESB58), UniProt Q9I194)
- Sequence (Q9I194 24-193 limits assumed): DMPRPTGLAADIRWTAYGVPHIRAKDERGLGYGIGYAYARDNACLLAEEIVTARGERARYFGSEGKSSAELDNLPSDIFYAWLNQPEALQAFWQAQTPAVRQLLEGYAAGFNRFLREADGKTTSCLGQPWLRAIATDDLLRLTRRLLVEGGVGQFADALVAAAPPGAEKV
- Sequence (Q9I194 217-762 limits assumed): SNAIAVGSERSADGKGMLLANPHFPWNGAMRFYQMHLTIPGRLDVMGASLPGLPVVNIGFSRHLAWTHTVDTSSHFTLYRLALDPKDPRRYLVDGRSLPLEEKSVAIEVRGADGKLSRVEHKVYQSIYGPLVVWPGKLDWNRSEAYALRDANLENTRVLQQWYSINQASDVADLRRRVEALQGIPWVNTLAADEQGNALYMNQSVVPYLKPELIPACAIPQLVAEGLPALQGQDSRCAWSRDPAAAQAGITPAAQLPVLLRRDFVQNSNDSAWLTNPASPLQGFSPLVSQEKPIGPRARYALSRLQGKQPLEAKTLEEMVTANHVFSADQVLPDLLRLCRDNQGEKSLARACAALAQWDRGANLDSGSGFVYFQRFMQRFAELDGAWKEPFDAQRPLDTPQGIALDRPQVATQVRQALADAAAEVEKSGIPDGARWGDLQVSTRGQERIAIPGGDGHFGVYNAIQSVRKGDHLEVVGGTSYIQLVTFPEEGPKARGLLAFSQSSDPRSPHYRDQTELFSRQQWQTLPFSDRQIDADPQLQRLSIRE
- METHOD_NOTES: P. aeruginosa PvdQ acylase inhibitors, dose response, biochemical, fluorescence, plate reader and imaging, cherry-picks (AID 493231)
Activity calls are given as the source filed them. Rule as the data show it: actives have a measured AC50 and inactives only a lower limit.
Outcomes: 1 (yes) = active, 0 (no) = inactive

INSERT INTO measurements (compound, assigned_label) VALUES
  ('COC(=O)c1ccc(OC(=O)c2cccs2)cc1', '1 (yes)'),
  ('Cn1cccc1C(C#N)c1ccccc1C#N (centres undefined)', '1 (yes)'),
  ('CCC(=O)c1ccc(OC(=O)c2cccs2)cc1', '0 (no)'),
  ('COc1ccc(N2CCN(C(=O)c3ccc(Br)o3)CC2)cc1', '1 (yes)');
